Listed molecules paired with reported Percent Disease Control
- Test system: Fusarium oxysporum
- procedure summary: Test B-6 Control Test to Damping-off of Cucumber
- Type: in vivo
- condition parameters: F*, 500 ppm, soil drench, 2 weeks
Hi! Could you send only the number? It should be in %, unit omitted.

[in] Please report the measured Percent Disease Control for `Cc1noc(NCC#CI)c1C`
[out] 78

[in] Please report the measured Percent Disease Control for `Cc1cc(N(C)CC#CI)no1`
[out] 50

[in] Please report the measured Percent Disease Control for `Cc1noc(N(C)CC#CI)c1Cl`
[out] 93

[in] Please report the measured Percent Disease Control for `Cc1noc(N(C)CC#CI)c1C`
[out] 57
